Test: Cytotoxicity against dog MDCK cells
Assay type: toxicity, cell-based, Canis lupus familiaris
readout: CC50 (nM)

# item-smiles, readout-units, measured-result
records = [
    ("CN1CCc2c(c3ccccc3n2Cc2ccc(C(=O)NO)cc2)C1", "nM", 400),
    ("CC(C)C[C@H](NC(=O)[C@H](Cc1ccccc1)NC(=O)c1cnccn1)B(O)O", "nM", 1200),
]

###

Test system: MM1.S
Experiment: Cytotoxicity against human MM1.S cells at 0.025 to 0.3 uM incubated for 24 hrs by cellTiter-Glo luminescent cell viability assay
Assay type: functional, cell-based
Where a SMILES comes first, the peptide text is derived from it. The star is where a group is joined. Cbz = O=C(OCc1ccccc1)*
readout: IC50

# compound, readout, measured-result
data = [
    ("CC(C)C[C@@H](C=O)NC(=O)[C@H](CC(C)C)NC(=O)[C@H](CC(C)C)NC(=O)OCc1ccccc1 [MG-132] (Cbz-Leu-Leu-Leu-aldehyde)", "IC50", "150 nM"),
]
